protocol_notes: Visual observation of gelation of peptide and peptide:GAG samples (systematic mixing study)
Type: physicochemical
condition_info: peptide alone
test_readout: c*gel (µM)

- substance: "CH3CO-Q-Q-R-F-O-W-O-F-E-Q-Q-NH2 (QQRFXWXFEQQ; HELM PEPTIDE1{[ac].Q.Q.R.F.[Orn].W.[Orn].F.E.Q.Q.[am]}$$$$V2.0; SMILES CC(=O)N[C@@H](CCC(N)=O)C(=O)N[C@@H](CCC(N)=O)C(=O)N[C@@H](CCCNC(=N)N)C(=O)N[C@@H](Cc1ccccc1)C(=O)N[C@@H](CCCN)C(=O)N[C@@H](Cc1c[nH]c2ccccc12)C(=O)N[C@@H](CCCN)C(=O)N[C@@H](Cc1ccccc1)C(=O)N[C@@H](CCC(=O)O)C(=O)N[C@@H](CCC(N)=O)C(=O)N[C@@H](CCC(N)=O)C(N)=O) [Peptide P11-8]"
  test_readout: "c*gel"
  experimental_result: 2000

###

protocol_notes: High resolution 1H-NMR study of peptide self-assembly as a function of concentration and time (c*)
Format: physicochemical
condition_info: critical concentration for aggregation, physiological-like solution; with GAG estimated from monomer level at ~5000 μM total peptide

- substance: "CH3CO-Q-Q-O-F-O-W-O-F-O-Q-Q-NH2 (QQXFXWXFXQQ; HELM PEPTIDE1{[ac].Q.Q.[Orn].F.[Orn].W.[Orn].F.[Orn].Q.Q.[am]}$$$$V2.0; SMILES CC(=O)N[C@@H](CCC(N)=O)C(=O)N[C@@H](CCC(N)=O)C(=O)N[C@@H](CCCN)C(=O)N[C@@H](Cc1ccccc1)C(=O)N[C@@H](CCCN)C(=O)N[C@@H](Cc1c[nH]c2ccccc12)C(=O)N[C@@H](CCCN)C(=O)N[C@@H](Cc1ccccc1)C(=O)N[C@@H](CCCN)C(=O)N[C@@H](CCC(N)=O)C(=O)N[C@@H](CCC(N)=O)C(N)=O) [Peptide P11-14]"
  c*: ">3600 µM"

###

Quick reference: G′ at 2 Hz 20 mg/ml of the listed items.
protocol_notes: Rheological study of peptide and peptide:glycosaminoglycan gels (amplitude and frequency sweeps)
Type: physicochemical
condition_info: 2 Hz (walking frequency), 20 mg/ml, 25° C.

- substance: "CH3CO-S-S-R-F-O-W-O-F-E-S-S-NH2 (SSRFXWXFESS; HELM PEPTIDE1{[ac].S.S.R.F.[Orn].W.[Orn].F.E.S.S.[am]}$$$$V2.0; SMILES CC(=O)N[C@@H](CO)C(=O)N[C@@H](CO)C(=O)N[C@@H](CCCNC(=N)N)C(=O)N[C@@H](Cc1ccccc1)C(=O)N[C@@H](CCCN)C(=O)N[C@@H](Cc1c[nH]c2ccccc12)C(=O)N[C@@H](CCCN)C(=O)N[C@@H](Cc1ccccc1)C(=O)N[C@@H](CCC(=O)O)C(=O)N[C@@H](CO)C(=O)N[C@@H](CO)C(N)=O) [Peptide P11-12]"
  G′ at 2 Hz 20 mg/ml: "20,510 Pa"
- substance: "CH3CO-Q-Q-R-F-O-W-O-F-E-Q-Q-NH2 (QQRFXWXFEQQ; HELM PEPTIDE1{[ac].Q.Q.R.F.[Orn].W.[Orn].F.E.Q.Q.[am]}$$$$V2.0; SMILES CC(=O)N[C@@H](CCC(N)=O)C(=O)N[C@@H](CCC(N)=O)C(=O)N[C@@H](CCCNC(=N)N)C(=O)N[C@@H](Cc1ccccc1)C(=O)N[C@@H](CCCN)C(=O)N[C@@H](Cc1c[nH]c2ccccc12)C(=O)N[C@@H](CCCN)C(=O)N[C@@H](Cc1ccccc1)C(=O)N[C@@H](CCC(=O)O)C(=O)N[C@@H](CCC(N)=O)C(=O)N[C@@H](CCC(N)=O)C(N)=O) [Peptide P11-8]"
  G′ at 2 Hz 20 mg/ml: "4,881 Pa"
- substance: "CH3CO-Q-Q-R-F-E-W-E-F-E-Q-Q-NH2 (Ac-QQRFEWEFEQQ-NH2) [Peptide P11-4]"
  G′ at 2 Hz 20 mg/ml: "1,065 Pa"
- substance: "CH3CO-S-S-R-F-E-W-E-F-E-S-S-NH2 (Ac-SSRFEWEFESS-NH2) [Peptide P11-9]"
  G′ at 2 Hz 20 mg/ml: "8 Pa"

###

protocol_notes: High resolution 1H-NMR study of peptide self-assembly as a function of concentration and time (c*)
Format: physicochemical
condition_info: critical concentration for aggregation, physiological-like solution; with GAG estimated from monomer level at ~5000 μM total peptide
Quick reference: c* of the listed items.
test_readout: c* (µM)

- substance: "CH3CO-Q-Q-R-F-O-W-O-F-E-Q-Q-NH2 (QQRFXWXFEQQ; HELM PEPTIDE1{[ac].Q.Q.R.F.[Orn].W.[Orn].F.E.Q.Q.[am]}$$$$V2.0; SMILES CC(=O)N[C@@H](CCC(N)=O)C(=O)N[C@@H](CCC(N)=O)C(=O)N[C@@H](CCCNC(=N)N)C(=O)N[C@@H](Cc1ccccc1)C(=O)N[C@@H](CCCN)C(=O)N[C@@H](Cc1c[nH]c2ccccc12)C(=O)N[C@@H](CCCN)C(=O)N[C@@H](Cc1ccccc1)C(=O)N[C@@H](CCC(=O)O)C(=O)N[C@@H](CCC(N)=O)C(=O)N[C@@H](CCC(N)=O)C(N)=O) [Peptide P11-8]"
  unit_descriptor: "µM"
  experimental_result: 400
- substance: "CH3CO-S-S-R-F-E-W-E-F-E-S-S-NH2 (Ac-SSRFEWEFESS-NH2) [Peptide P11-9]"
  unit_descriptor: "µM"
  experimental_result: 1160
- substance: "CH3CO-Q-Q-R-F-E-W-E-F-E-Q-Q-NH2 (Ac-QQRFEWEFEQQ-NH2) [Peptide P11-4]"
  unit_descriptor: "µM"
  experimental_result: 310
- substance: "CH3CO-S-S-R-F-O-W-O-F-E-S-S-NH2 (SSRFXWXFESS; HELM PEPTIDE1{[ac].S.S.R.F.[Orn].W.[Orn].F.E.S.S.[am]}$$$$V2.0; SMILES CC(=O)N[C@@H](CO)C(=O)N[C@@H](CO)C(=O)N[C@@H](CCCNC(=N)N)C(=O)N[C@@H](Cc1ccccc1)C(=O)N[C@@H](CCCN)C(=O)N[C@@H](Cc1c[nH]c2ccccc12)C(=O)N[C@@H](CCCN)C(=O)N[C@@H](Cc1ccccc1)C(=O)N[C@@H](CCC(=O)O)C(=O)N[C@@H](CO)C(=O)N[C@@H](CO)C(N)=O) [Peptide P11-12]"
  unit_descriptor: "µM"
  experimental_result: 2300

###

Quick reference: G″ at 2 Hz 20 mg/ml of the listed items.
protocol_notes: Rheological study of peptide and peptide:glycosaminoglycan gels (amplitude and frequency sweeps)
Format: physicochemical
condition_info: 2 Hz (walking frequency), 20 mg/ml, 25° C.

- substance: "CH3CO-Q-Q-R-F-E-W-E-F-E-Q-Q-NH2 (Ac-QQRFEWEFEQQ-NH2) [Peptide P11-4]"
  G″ at 2 Hz 20 mg/ml [Pa]: 205
- substance: "CH3CO-Q-Q-R-F-O-W-O-F-E-Q-Q-NH2 (QQRFXWXFEQQ; HELM PEPTIDE1{[ac].Q.Q.R.F.[Orn].W.[Orn].F.E.Q.Q.[am]}$$$$V2.0; SMILES CC(=O)N[C@@H](CCC(N)=O)C(=O)N[C@@H](CCC(N)=O)C(=O)N[C@@H](CCCNC(=N)N)C(=O)N[C@@H](Cc1ccccc1)C(=O)N[C@@H](CCCN)C(=O)N[C@@H](Cc1c[nH]c2ccccc12)C(=O)N[C@@H](CCCN)C(=O)N[C@@H](Cc1ccccc1)C(=O)N[C@@H](CCC(=O)O)C(=O)N[C@@H](CCC(N)=O)C(=O)N[C@@H](CCC(N)=O)C(N)=O) [Peptide P11-8]"
  G″ at 2 Hz 20 mg/ml [Pa]: 552
- substance: "CH3CO-S-S-R-F-O-W-O-F-E-S-S-NH2 (SSRFXWXFESS; HELM PEPTIDE1{[ac].S.S.R.F.[Orn].W.[Orn].F.E.S.S.[am]}$$$$V2.0; SMILES CC(=O)N[C@@H](CO)C(=O)N[C@@H](CO)C(=O)N[C@@H](CCCNC(=N)N)C(=O)N[C@@H](Cc1ccccc1)C(=O)N[C@@H](CCCN)C(=O)N[C@@H](Cc1c[nH]c2ccccc12)C(=O)N[C@@H](CCCN)C(=O)N[C@@H](Cc1ccccc1)C(=O)N[C@@H](CCC(=O)O)C(=O)N[C@@H](CO)C(=O)N[C@@H](CO)C(N)=O) [Peptide P11-12]"
  G″ at 2 Hz 20 mg/ml [Pa]: 3067
- substance: "CH3CO-S-S-R-F-E-W-E-F-E-S-S-NH2 (Ac-SSRFEWEFESS-NH2) [Peptide P11-9]"
  G″ at 2 Hz 20 mg/ml [Pa]: 5

Origin of the recorded values: patent US9937265B2
